assay: SK-BR-3 cell growth inhibitors, pilot screen, 24 h, human (AID 572); details: SK-BR-3 viability, CellTiter-Glo luminescence, at 10 µM, hits give low values;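 further: compound exposure lasted between 18 and 24 h rather than exactly 24 h; 100% = carrier-treated control wells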
observationType: viability (%)
Please reply with the bare figure in % and do not write the unit itself.

Exam item: // viability lookup, key: CCOC(=O)c1c(C)oc2c1c(C(c1ccncc1)N1CCOCC1)c(O)c1ccccc12 (stereo not given)
Marked response: 104

Exam item: GET /values?readout=viability&item= COCCn1c(=O)[nH]c2cc(C(=O)N3CCN(Cc4ccc5c(c4)OCO5)CC3)ccc2c1=O
Marked response: 93.5

Exam item: Consider the molecule COc1cc(NS(=O)(=O)c2ccc(N)cc2)ncn1 and give its measured viability.
Marked response: 107

Exam item: Which value of viability has been reported for Cc1cc(=O)oc2ccc(OCC(=O)N(Cc3ccc(F)cc3)Cc3ccco3)cc12 in the records?
Marked response: 91

Exam item: Fill in: viability of CCN(CC)CCn1c(OC)cc(=O)[nH]c1=O is ___
Marked response: 93

----------
experiment: growth inhibitors of H69AR lung tumor, primary screen, human, duplicate replicates (AID 580); settings: H69AR lung tumor cells viability, ATP luminescence, 72 h; at 10 µM; hits give low values;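 further: 100% = mean luminescence of untreated wells and 0% = no signal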
For each of the molecules below, state its viability.
Kindly answer with a numeric value in %, unit omitted.

Exam item: Look at this molecule and give its reported viability. COC(=O)C1CCN(C(=O)CN2C(=O)NC(CCc3ccccc3)C2=O)CC1 (configuration not stated)
Marked response: 91.7

Exam item: What value of viability has been reported for the following molecule? Cc1ccc(Cl)cc1N1CCN(C(=O)c2cn(C)c(=O)c3c2c2ccccc2n3C)CC1
Marked response: 3.07

Exam item: If you can, please state the reported viability value of CCCn1nc(CC(=O)O)c2ccccc2c1=O .
Marked response: 103

Exam item: What does the record list as viability for Cc1cc(NC(=O)Cc2c(F)cccc2Cl)no1 ?
Marked response: 96

Exam item: Quick one: viability for CCN(CC(=O)NCc1cccs1)C(=O)c1cc(S(=O)(=O)N2CCOCC2)ccc1C ?
Marked response: 87.7

Exam item: What value of viability has been recorded for this entry: CN(C)CCN(Cc1ccccc1)c1ccccn1
Marked response: 101

Exam item: Given the molecule COCCCN1C(=O)C(O)=C(C(C)=O)C1c1ccccn1 (configuration not stated) , what is its reported viability?
Marked response: 86.6

Exam item: Reported viability, molecule COc1c2occc2c(OC)c2c(=O)cc(C)oc12 : ____
Marked response: 91.2

Exam item: Give its viability value. Item: COc1ccccc1C(=O)NCCNC(=O)c1ccco1
Marked response: 91.6

Exam item: Fill in the blank: the reported viability of Cc1cc(-c2ccccc2)nnc1NCCN1CCOCC1 is ____.
Marked response: 89.7

Exam item: // returns reported viability for input Cc1cccc(CC2CC(=O)N(c3ccccc3)C2=O)c1 (configuration not stated)
Marked response: 102

Exam item: Reported viability for CCN(CC)C(=O)c1ccc(O)c(OC)c1 : what is it?
Marked response: 101

----------
target: Receptor tyrosine-protein kinase erbB-2 (Homo sapiens); experiment: reducers of endogenous Her2 protein level, primary screen, SKBR3 breast tumor cells, AlphaScreen, ATP viability (AID 461); details: 18-24 h, at 10 µM, hits give low values;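 further: lower value means less Her2 protein in the cells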
observationType: Her2 level (%)
Please state the figure in %; there is no need to write the unit.

Exam item: What Her2 level value was documented for this compound, C/C(=C\C(=O)c1ccc(F)cc1)Nc1ccc(N2CCOCC2)cc1 ?
Marked response: 97

Exam item: # lookup: Her2 level of CCOC(=O)c1c(C)[nH]c(C(=O)COC(=O)c2ccc(F)c(S(=O)(=O)N3CCOCC3)c2)c1C
Marked response: 79.5

Exam item: Using the record for Cc1ccc(-c2nc(N)n(C(=O)c3cccnc3)n2)cc1 , report its Her2 level.
Marked response: 87.5

Exam item: // query Her2 level value for entry CCOC(=O)c1ccc(NS(=O)C23CC4CC(CC(C4)C2)C3)cc1 (stereo not drawn)
Marked response: 82

Exam item: Recorded Her2 level for CO/C([O-])=N/c1c[n+](-c2ccc(C)cc2)no1 , please?
Marked response: 92.5

Exam item: Query (compound): Cc1ccc(-c2cn3cccnc3n2)cc1NC(=O)c1ccc(Br)o1 ; field requested: Her2 level
Marked response: 86.5

Exam item: Quick check: Her2 level of COc1cccc(C(=O)Nc2c(C(N)=O)oc3ccccc23)c1 ?
Marked response: 69

Exam item: Could you tell me which Her2 level is on file for Cc1cc(Cn2ccnc2)c(C)cc1Cn1ccnc1 ?
Marked response: 91.5

Exam item: # lookup: Her2 level of CN(C(=O)c1ccncc1)C1CC(C)(C)N(O)C(C)(C)C1
Marked response: 96.5

Exam item: Need Her2 level of CCn1c(SCC(=O)Nc2ccccc2F)nc2c(c1=O)SC(C)C2 (stereo not drawn) , thanks.
Marked response: 86.5

Exam item: Tell me the measured Her2 level of CN(C)Cc1cn(CCC(=O)O)c2ccccc12 , please.
Marked response: 106

Exam item: I have this compound here, COc1ccc(-c2nnn(CCc3nn[nH]n3)n2)cc1OC , and I need its recorded Her2 level.
Marked response: 98.5

Exam item: Suppose we examine the compound COc1ccc(C(C)(C)C)cc1NC(=O)Nc1ccc2c(c1)OCO2 ; what Her2 level value has been reported?
Marked response: 89.5

Exam item: What value of Her2 level has been recorded for this entry: COc1ccccc1N1CCN(C/C(O)=C(\C#N)c2nc(-c3ccccc3)cs2)CC1
Marked response: 108

Exam item: What Her2 level value was documented for this compound, CCOC(=O)c1[nH]c(C)c(C(=O)Nc2cc(OC)ccc2OC)c1C ?
Marked response: 65

Exam item: # lookup: Her2 level of Cn1cccc1Cc1nnc(SCC(=O)Nc2ccccc2F)n1CCc1ccccc1
Marked response: 91

Exam item: Can you look up the measured Her2 level of CN(CC(O)COCc1cccs1)C1CCCCC1 (stereo not drawn) for me?
Marked response: 90

Exam item: Which Her2 level reading was recorded for the compound CC(C)(C)NC(=O)C(c1ccco1)N(C(=O)Cn1nnc(-c2ccc(F)cc2)n1)c1ccccc1 (stereo not drawn) ?
Marked response: 80

Exam item: # input compound: COc1ccccc1NC(=O)NCCCN1CCN(c2cccc(Cl)c2)CC1 ; wanted: its Her2 level
Marked response: 70.5

Exam item: Record request: Her2 level value, item CC(=O)Nc1sc2c(c1C#N)CCCCC2
Marked response: 113

Exam item: Which Her2 level value belongs to CC(C)Cc1n[nH]c(=O)[nH]1 ?
Marked response: 115

Exam item: // returns reported Her2 level for input O=C(CC(Cc1ccccc1)C(=O)O)NCCc1ccc2c(c1)OCO2 (stereo not drawn)
Marked response: 122

Exam item: Query (compound): CCC(Sc1nc2n[nH]c(C)c2c(=N)n1-c1cc(Cl)ccc1C)C(=O)N1CCOCC1 (stereo not drawn) ; field requested: Her2 level
Marked response: 96

----------
experiment: HUVEC growth inhibition – cell-based, human, primary screen (AID 575); settings: HUVEC proliferation, CellTiter-Glo luminescence, 72 h; at 10 µM; hits give low values;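 further: 100% = median of untreated cell wells with 0.1% DMSO on each plate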
observationType: viability (%)
Respond numerically; units are % and should not be typed.

Exam item: Any idea what viability was measured for CCOC(=O)Cc1csc(NC(=O)CSc2nnc(C(C)C)n2CC)n1 ?
Marked response: 88

Exam item: Report viability for NC(=O)OCC(COC(N)=O)c1ccccc1 please.
Marked response: 89.3

Exam item: I am curious: what viability value has been reported for Nc1nc(SCCOc2ccccc2)n[nH]1 ?
Marked response: 94.1

Exam item: What viability value was documented for this molecule, CN(C1CCCCC1)S(=O)(=O)c1ccc(S(=O)(=O)N2CCCC2)cc1 ?
Marked response: 78.3

Exam item: Would you mind telling me what viability value was observed for COC(=O)c1nc(N)sc1-c1ccccc1 ?
Marked response: 95.1

Exam item: GET /values?readout=viability&item= CC(=O)Nc1nnc(S(N)(=O)=O)s1
Marked response: 88.7

Exam item: What value of viability has been recorded for this entry: CCCCNC(=O)c1nnn(-c2ccccc2)c1N
Marked response: 113

Exam item: Could you tell me which viability is on file for Nc1c(N2CCCCC2)c(=O)[nH]c(=O)n1-c1ccccc1 ?
Marked response: 102

Exam item: What does the record list as viability for CCCCCCCCCCCCCCCC(O)C(N)CO (configuration not stated) ?
Marked response: 2.65

Exam item: Please give the measured viability for this molecule: CCC(=O)Nc1ccc(NC(=O)c2ccccn2)cn1
Marked response: 103

Exam item: So what does the record say about viability for Cc1ccc(-n2nc3cc(Cl)c(NC(=O)c4ccco4)cc3n2)cc1 ?
Marked response: 92.6

Exam item: Using the record for CC(=O)C1=C(C)OC(N)=C(C#N)C1c1ccncc1 (configuration not stated) , report its viability.
Marked response: 115

Exam item: Query (molecule): CCOC(=O)CCC(=O)Nc1ccc(S(=O)(=O)N2CCCC2)cc1 ; field requested: viability
Marked response: 105

Exam item: # viability lookup, item COc1cccc2c(=O)cc(C)n(CC(=O)Nc3ccc(C)c(C)c3)c12
Marked response: 84.5

Exam item: Can you share its viability? I mean this molecule: CC1CN(CC(O)COc2ccc(C(C)C)cc2)CC(C)O1 (configuration not stated)
Marked response: 94.9

Exam item: Which viability value belongs to CC1(C)Cc2c(C#N)c(SCCC#N)nc(N3CCOCC3)c2CS1 ?
Marked response: 86.6

Exam item: Please report the recorded viability for Cc1ccc(O)c(C(=O)c2cc(C#N)c(=O)n(CC3CCCO3)c2)c1 (configuration not stated) .
Marked response: 93.2

Exam item: Which viability value is on record for COc1ccc(N2CCN(C(=O)CSc3ncnc4c3cnn4-c3ccccc3C)CC2)cc1 ?
Marked response: 55.5

Exam item: Look at this molecule and give its reported viability. COC(=O)c1[nH]c2ccc(C)cc2c1NC(=O)CN1CCCc2ccccc21
Marked response: 48.2

Exam item: Fill in the blank: the reported viability of Cc1nc(CNS(=O)(=O)c2cccc(F)c2)cs1 is ____.
Marked response: 93.3

Exam item: Can you look up the measured viability of CN(C)C(=O)Oc1ccc[n+](C)c1 for me?
Marked response: 102

Exam item: # query: viability of entry Cc1cc2oc(C(=O)NC3CCS(=O)(=O)C3)c(C)c2cc1C (configuration not stated)
Marked response: 97.7

Exam item: Tell me the measured viability of O=C(O)CCc1ccc(-c2cccs2)n1NC(=O)c1ccco1 , please.
Marked response: 105

Exam item: Need viability, item CC(C)C12CN3CC(C(C)C)(CN(C1)C3c1ccc3c(c1)OCO3)C2=O (configuration not stated)
Marked response: 91.8

Exam item: Fill in the blank: the reported viability of COc1cc(NC(=O)Nc2cccc(Cl)c2)c(OC)cc1NC(=O)CN1CCCCC1 is ____.
Marked response: 20.3

Exam item: Entry CCN(C(=O)c1c(-c2ccccc2)noc1C)c1ccccc1 has what viability?
Marked response: 100

Exam item: I'd like to know its viability. The molecule in question is CCOC(=O)C1CCCN(c2nc3ccccc3nc2C(C#N)C(=O)NCc2ccccc2)C1 (configuration not stated)
Marked response: 80.6

Exam item: What measured viability goes with N#Cc1cc2ccccc2nc1SCC(=O)Nc1ccccc1N1CCOCC1 ?
Marked response: 64.4

Exam item: So what does the record say about viability for CCn1c(CNc2ccc(C)cc2)nnc1SCC(=O)NCc1ccccc1 ?
Marked response: 91.1

Exam item: # viability lookup, item Cc1cc(=O)[nH]c(S/C=C/c2ccccc2)n1
Marked response: 77

Exam item: Form field: reported viability of CCOC(=O)CCC(=O)c1c(C)oc2ccc(OC)cc12
Marked response: 81.8

Exam item: Look up viability: N#CCc1nc2c3c4c(sc3ncn2n1)CCCC4
Marked response: 23.6

Exam item: Using the record for COC(=O)C1(C)NC(c2cccs2)C2C(=O)N(c3ccccc3F)C(=O)C21 (configuration not stated) , report its viability.
Marked response: 96.3

Exam item: Which value of viability has been reported for CCOC(=O)c1oc2cc(OCC(N)=O)ccc2c(=O)c1-c1ccc(OC)c(OC)c1 in the records?
Marked response: 88.1

Exam item: Give its viability value. Item: CCOc1ccc2c(c1)n(CO)c(=S)n2CO
Marked response: 83.6

Exam item: Query: viability; subject: CC(C)(C)NCC(O)c1cc(O)cc(O)c1 (configuration not stated)
Marked response: 109

Exam item: Need viability, item CCN1CCc2c(C#N)c(N3CCCCC3)nc(NCc3ccccc3)c2C1
Marked response: 2.17

Exam item: viability for C=CCNC(=O)C1CC(=O)N(c2ccc(OCC(=O)Nc3ccc(OC)cc3)cc2)C1 (configuration not stated) ?
Marked response: 112

Exam item: What does the data say about its viability? Entry: CCCCCSc1nc2c(cnn2-c2ccccc2)c(=O)[nH]1
Marked response: 45.2

Exam item: Bench note: what viability did CCN(CC)C(=O)C1=C(C)NC(=O)NC1c1c(F)cccc1Cl (configuration not stated) show?
Marked response: 96.8

Exam item: // lookup viability for O=C(NCc1cccnc1)c1cccc(C(F)(F)F)c1
Marked response: 109

Exam item: I have this molecule here, COc1ccccc1N(CC(=O)NC1CCCC1)C(=O)c1csnn1 , and I need its recorded viability.
Marked response: 89.7

Exam item: Which measured viability value corresponds to Cc1csc(NC(=O)CCS(=O)(=O)c2ccc(Br)cc2)n1 ?
Marked response: 82.5

Exam item: Give its viability value. Item: Cn1c(=O)cc(OCCCC(=O)N2CCCCC2)c2ccccc21
Marked response: 87.5

Exam item: Endpoint output: viability of O=C(NCc1ccco1)c1ccc2c(=O)n(CC3CCCO3)c(=S)[nH]c2c1 (configuration not stated) . Value?
Marked response: 76

Exam item: So what's the measured viability for this one? COC(=O)c1ccccc1NC(=O)C1CCN(S(=O)(=O)c2cc(C)ccc2OC)CC1
Marked response: 78.9

Exam item: What does the record list as viability for O=C(NC1CCCC1)C(c1cccs1)N(C(=O)c1ccno1)c1ccccc1 (configuration not stated) ?
Marked response: 95.2

Each recorded value in this set is attributed to PubChem BioAssay.
